Provenance of the data: paper PMC7180572

Listing of entries alongside the reported SI, selectivity index.
# System: HepG2 cells
# assay-text: HepG2 cytotoxicity, CellTiter 96 (MTS) assay
# Assay type: cell-based, human
# measurement-parameters: IC50 (HepG2)/MIC against Mtb H37Ra (in µM)

structure: CCCNc1cnc(C(=O)Nc2cccc(C(F)(F)F)c2)cn1
SI, selectivity index: >1.3
--
structure: CCCCCNc1cnc(C(=O)Nc2ccc(O)cc2)cn1
SI, selectivity index: >38.4

Now consider a different compound.
The reported SI, selectivity index of the compound CCCNc1cnc(C(=O)Nc2cccc(O)c2)cn1 was >3.5

* * *

# Tested on: Aspergillus flavus CCM 8363
# assay-text: Antifungal microdilution broth method (EUCAST)
# Format: cell-based
# measurement-parameters: CCM8363, 24 h, read-out: MIC AFla
Listed here: items and their measured MIC.

// below: answered compounds
structure: CCCCCNc1cnc(C(=O)Nc2ccc(C)cc2)cn1
target-system: Aspergillus flavus CCM 8363
MIC: > 125 µM
--
structure: CCCCCCCNc1cnc(C(=O)Nc2ccc(C)cc2)cn1
target-system: Aspergillus flavus CCM 8363
MIC: > 125 µM

// next entry
Lab note: measured MIC of CCCNc1cnc(C(=O)Nc2cccc(C(F)(F)F)c2)cn1 was > 125 µM
